Measured On: BRD4 (BD1) (Homo sapiens)
Construct: Each member comprises two tandem bromodomains (BD1 and BD2) for recognizing the acetylated lysine residues
Assay Protocol: BRD4 (BD1) bromodomain binding, HTRF
Conditions: 2 h incubation at r.t.
As shown below, each of these compounds has a reported IC50 value.
Write the number in nM without appending the unit.

- Compound Smiles: "CC[C@@H]1N=C(c2ccc(F)cc2)c2ccc(CS(=O)(=O)CC)cc2-c2cn(C)c(=O)cc21"
  Unit Abbreviation: "nM"
  Result Value: 2
- Compound Smiles: "C[C@@H]1N=C(c2ccc(F)cc2)c2cc(F)c(NS(C)(=O)=O)cc2-c2cn(C)c(=O)cc21"
  Unit Abbreviation: "nM"
  Result Value: 1
- Compound Smiles: "C[C@@H]1N=C(c2ccc(F)cc2)c2ccc(CS(N)(=O)=O)cc2-c2cn(C)c(=O)cc21"
  Unit Abbreviation: "nM"
  Result Value: 2
- Compound Smiles: "CCS(=O)(=O)Cc1ccc2c(c1)-c1cn(C)c(=O)cc1[C@H](C(F)(F)F)N=C2c1ccc(F)cc1"
  Unit Abbreviation: "nM"
  Result Value: 5
- Compound Smiles: "CCS(=O)(=O)Cc1ccc2c(c1)-c1cn(C)c(=O)cc1[C@H](C)N=C2c1ccc(OC)cc1"
  Unit Abbreviation: "nM"
  Result Value: 2

Okay, next one:
q: Record request: IC50 value, item CCS(=O)(=O)Nc1ccc2c(c1)-c1cn(C)c(=O)cc1[C@H](C)N=C2c1ccc(F)cc1
a: 2

---

Entries and their measured IC50 follow.
Measured On: BRD4 (BD1) (Homo sapiens, UniProt O60885)
Construct: Each member comprises two tandem bromodomains (BD1 and BD2) for recognizing the acetylated lysine residues
Assay Protocol: BRD4 (BD1) bromodomain binding, HTRF
Conditions: 2 h incubation at r.t.
Report as a plain number; the unit nM is understood.

q: Item CCS(=O)(=O)Cc1ccc2c(c1)-c1cn(C)c(=O)cc1[C@H](C)N=C2c1ccc(O)cc1 [Compound 4061] has what recorded IC50?
a: 2

q: Try C[C@@H]1N=C(c2ccc(F)cc2)c2cc(F)c(N)cc2-c2cn(C)c(=O)cc21 [Compound 4070] next.
a: 3

q: Please answer likewise for CNS(=O)(=O)Nc1ccc2c(c1)-c1cn(C)c(=O)cc1[C@H](C)N=C2c1ccc(F)cc1 [Compound 4050]
a: 17

q: Field entry: CCS(=O)(=O)Nc1cc2c(cc1Cl)C(c1ccc(Cl)cc1)=N[C@@H](C)c1cc(=O)n(C)cc1-2 [Compound 4068]
a: 1

q: Input C[C@@H]1N=C(c2ccc(Cl)cc2)c2ccccc2-c2cn(C)c(=O)cc21 [Compound 4025]
a: 7

q: C[C@@H]1N=C(c2ccc(F)cc2)c2cc(Cl)c(NS(=O)(=O)C3CC3)cc2-c2cn(C)c(=O)cc21 [Compound 4080] ?
a: 2

q: And for CNS(=O)(=O)Cc1ccc2c(c1)-c1cn(C)c(=O)cc1[C@H](C)N=C2c1ccc(F)cc1 [Compound 4072] ?
a: 1

---

Assay Protocol: Cassette pharmacokinetic study, intravenous or oral administration
Assay type: in vivo, female Balb/c nude mice
Conditions: PO 2 mg/kg vs IV 0.5 mg/kg
Method: Determinations of the pharmacokinetic parameters of ABBV-075 (standard control), 4009, 4018, 4026 and 4031 in femal Balb/c nude mice after intravenous or oral administration. Detailed Experimental Steps: 6 female Balb/c nude mice weighing 18-20 g were divided into two groups (3/group), after fixation, the intravenous group: 0.5 mg/kg (5 mL/kg) injected by caudal vein (N=3); the oral group: 2 mg/kg (10 mL/kg) by intragastic administration (N=3). […]
Endpoint Name: F (%)
Write it as a number; the unit % goes unstated.

- Compound Smiles: "CCS(=O)(=O)Cc1ccc2c(c1)-c1cn(C)c(=O)cc1CN=C2c1ccc(F)cc1"
  Result Value: 99.7

q: Data request, read-out F, for CCS(=O)(=O)Cc1ccc2c(c1)-c1cn(C)c(=O)cc1[C@H](C)N=C2c1ccc(F)cc1
a: 89.5

q: Could you do the same for CCS(=O)(=O)Nc1ccc(Oc2ccc(F)cc2F)c(-c2cn(C)c(=O)c3[nH]ccc23)c1 , please?
a: 62.5

q: Record: CCS(=O)(=O)Nc1ccc2c(c1)-c1cn(C)c(=O)cc1CN=C2c1ccc(F)cc1
a: 12.2

q: CCS(=O)(=O)Nc1cc2c(cc1Cl)C(c1ccc(F)cc1)=NCc1cc(=O)n(C)cc1-2 ?
a: 108
